Source of measurements: PubChem BioAssay (NCI)

Listing: TGI of selected compounds
System: MOLT-4 leukemia
Assay: NCI tumour cell line growth inhibition, 48 h

Recorded TGI, per entry:
COc1ccc(-c2ccccc2)cc1-c1c(Nc2cc(Cl)cc(Cl)c2O)c(=O)c1=O; > 50 µM
COc1ccc(-n2c(C)nc3c(c(C)nn3-c3ccccc3)c2=O)cc1; > 40.4 µM
CN(c1ccccc1Cl)S(=O)(=O)c1ccccc1[N+](=O)[O-]; > 100 µM

Inquiry: // map CC(=O)NC1=CC(=O)c2cc(C)cc(O)c2C1=O to recorded TGI (system: MOLT-4 leukemia)
Reply text: 24.2 µM

Inquiry: What do you have for COc1ccc(C(=O)CC(c2ccc(OC)c(OC)c2)c2c(O)c3ccccc3oc2=O)cc1OC (stereo not given) ?
Reply text: > 100 µM

====

Tested on: MDA-MB-435
The categories you may choose from are Yes = active, No = inactive

Take a look at these entries with their results.
Cc1ccc(C[P+](c2ccccc2)(c2ccccc2)c2ccccc2)cc1; No
CNCCOC(=O)/C=C1/CCC2C(C(O)CC3C(C)(C(=O)OC)CCCC23C)C1C (centres undefined); Yes
COc1ccc(-c2csc3c2-n2cccc2C3=O)cc1O; Yes

Inquiry: Query: recorded result category for COc1cc2c3c(n(CCCNCCNCCCN)c(=O)c2cc1OC)-c1cc2c(cc1C3=O)OCO2 in this test
Reply text: No

====

Listing: TGI of selected molecules
Tested on: K-562 leukemia
Assay: NCI tumour cell line growth inhibition, 48 h

COc1ccc(C2=C(c3cc(OC)c(OC)c(OC)c3)C(=O)OC2)cc1OC; > 100 µM
COc1cc(CNc2nc3cc(C(F)(F)F)ccc3nc2C)cc(OC)c1OC; 73.9 µM
COc1ccc2c(c1)-c1nn(CCN(C)C)c3ccc(C(=O)NCCCN(C)CCCNC(=O)c4ccc5c6c(nn5CCN(C)C)-c5cc(OC)ccc5Nc46)c(c13)N2; 1.14 µM
COc1cc2c(cc1OC)-c1c(c3ccc([N+](=O)[O-])cc3c(=O)n1CCCN)C2=O; 2.65 µM
Cc1ccc2nc(Cl)c(/C=N/N3C(=O)/C(=C/c4ccc(N(C)C)cc4)N=C3c3ccccc3)cc2c1; > 100 µM
CCS(=O)(=O)c1c2cc(OC)ccc2nc2ccc(OC)cc12; > 100 µM

Inquiry: // map COC(=O)C1=Cc2c(cc(OC)c(OC)c2OC)[C@H](c2ccc(OC)c(OC)c2OC)C1C(=O)OC (stereo partly drawn) to recorded TGI (system: K-562 leukemia)
Reply text: > 100 µM

Inquiry: What do you have for COc1cc(C2S/C(=C/c3ccccc3)C(=O)N2c2cccc([N+](=O)[O-])c2)cc(OC)c1OC (stereo not drawn) ?
Reply text: > 100 µM

Inquiry: What do you have for COc1ccc(-c2ccccc2)cc1-c1c(Nc2cc(Cl)cc(Cl)c2O)c(=O)c1=O ?
Reply text: > 50 µM

Inquiry: What do you have for COc1cc(C(SCc2ccccc2)SCc2ccccc2)ccc1O ?
Reply text: > 10 µM

Inquiry: What do you have for CNCCOC(=O)/C=C1/CCC2C(C(O)CC3C(C)(C(=O)OC)CCCC23C)C1C (stereo not drawn) ?
Reply text: 0.0953 µM

Inquiry: What do you have for CO/C(=N\N=C\c1cccc(C(F)(F)F)c1)c1ccncc1 ?
Reply text: > 100 µM
